biological target: E3 ubiquitin-protein ligase XIAP (Homo sapiens); assay: XIAP binders, primary screen, biophysical, small-molecule microarray, fluorescence 635 nm (AID 1181); conditions: small-molecule microarray binding, higher = more signal;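 further: score merges 667 nm emission and signal to noise over triplicate slides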
composite z-score of 0.03 or higher: met. Under 0.03: not met.

Say whether CC(C)(C)OC(=O)CC[C@]1(C(=O)N2CCCCC2)N=C(c2ccc(OCCCO)cc2)O[C@H]1c1ccccc1 shows composite z-score of 0.03 or more. met

====

experiment: small-molecule microarray binders of probe aEGFR, primary screen, biochemical, biotinylated probe, 635/667 nm fluorescence (AID 1097); conditions: higher = more signal;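 further: probe is a biotinylated anti-EGFR antibody binding compounds printed on slides; score combines fluorescence near 667 nm and signal to noise of each spot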
VALUE TYPE: composite z-score
Answers are plain numbers.

Consider the worked cases shown below.
Documented composite z-score of CC/C=C/C(=O)N(C[C@@H]1CCCO1)[C@@H]1CC(C(=O)NCCO)=C[C@H](Oc2c(I)cc(CO)cc2OC)[C@H]1O : -0.191

Documented composite z-score of O=C1O[C@H](c2ccccc2)[C@H](c2ccccc2)N2[C@H]1[C@@H](C(=O)Nc1nc3ccccc3s1)[C@]1(C(=O)Nc3ccc(C#CC4(O)CCCCCC4)cc31)[C@H]2c1ccc(O)cc1 : -0.0214

Documented composite z-score of CO[C@H]1O[C@H](CO)[C@@H](OC(=O)Nc2ccccc2)[C@H](OC(=O)Nc2ccc3c(c2)OCO3)[C@@H]1OC(=O)Nc1ccc2c(c1)OCO2 : -0.117

Documented composite z-score of O=C(O)[C@@H]1Cc2c([nH]c3ccccc23)[C@@H](c2ccccc2)N1 : -0.046

Please supply composite z-score for each of the following items, keeping them in order.
1. COCCOC(=O)N1C(=O)[C@@]2(c3cc(C#CCNC(N)=O)ccc31)[C@H](C(=O)N1CCCCCCC1)[C@H]1C(=O)O[C@H](c3ccccc3)[C@H](c3ccccc3)N1[C@@H]2c1ccccc1OCCO
2. CO[C@@H]1COC(=O)CC=C[C@H](C)COC(=O)[C@H](Cc2ccccc2)NC(=O)CC=C[C@H]1C

1. 0.295
2. -0.0773

====

target: Torsin-1A (Homo sapiens) (UniProt O14656); test: small-molecule binders of mutant TOR1A in lysate, primary screen, cell lysate, small-molecule microarray, COS7 lysate, 635/667 nm fluorescence (AID 1150); settings: COS7 hTOR1A mutant lysate, 635 nm fluorescence, higher = more signal;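 further: score pools 667 nm emission and signal to noise measuring lysate protein binding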
Sequence (O14656 whole entry, looked up): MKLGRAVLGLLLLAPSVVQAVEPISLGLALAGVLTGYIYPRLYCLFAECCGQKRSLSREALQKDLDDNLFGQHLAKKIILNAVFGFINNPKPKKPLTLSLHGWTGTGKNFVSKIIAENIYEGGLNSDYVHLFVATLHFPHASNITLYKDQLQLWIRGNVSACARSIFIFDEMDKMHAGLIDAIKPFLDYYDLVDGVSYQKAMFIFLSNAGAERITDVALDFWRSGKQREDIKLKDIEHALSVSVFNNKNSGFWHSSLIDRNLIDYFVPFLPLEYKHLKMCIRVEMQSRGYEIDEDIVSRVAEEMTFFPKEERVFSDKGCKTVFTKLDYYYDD
I'd be grateful if you could share measured composite z-score for these entries.
Answers are plain numbers.

Consider the worked cases shown below.
Form field composite z-score for item O=C/C=C/c1ccc(/C=C/c2ccccc2)cc1 on Torsin-1A (Homo sapiens) (UniProt O14656): -0.479

Form field composite z-score for item O=C1O[C@@H](c2ccccc2)[C@@H](c2ccccc2)N2[C@@H](c3ccc(O)cc3)[C@]3(C(=O)Nc4ccccc43)[C@@H](C(=O)N3CCN(c4ncccn4)CC3)[C@H]12 on Torsin-1A (Homo sapiens) (UniProt O14656): 0.232

Form field composite z-score for item Cc1ccc(N2C(=O)c3ccccc3[C@@H](C(=O)NCC(F)(F)F)[C@@H]2c2ccc(CO)cc2)nc1 on Torsin-1A (Homo sapiens) (UniProt O14656): -1.78

Please supply composite z-score for each of the following items, keeping them in order.
1. NC(=O)NCC#Cc1ccc2c(c1)[C@]1(C(=O)N2)[C@H](C(=O)N2CCCCCCC2)[C@H]2C(=O)O[C@H](c3ccccc3)[C@H](c3ccccc3)N2[C@@H]1c1ccccc1OCCO
2. C=CCOC(=O)[C@@H]1[C@H]2C(=O)O[C@H](c3ccccc3)[C@H](c3ccccc3)N2[C@H](c2ccc(OCCOC(=O)[C@H]3C[C@H]4C(=O)N5CCC[C@H]5C(=O)N4[C@H]3c3ccc(O)cc3)cc2)[C@@]12C(=O)Nc1ccccc12
3. COc1cc(CO)cc(I)c1O[C@H]1C=C(C(=O)NCCO)C[C@@H](N(CC2CCCCC2)C(=O)c2cc3ccccc3oc2=O)[C@@H]1O
4. COc1ccc([C@H]2C[C@H]3C(Br)=C[C@]2(OC)C(=O)[C@]32CO2)cc1

1. 1.53
2. 0.283
3. 0.0077
4. -0.278
